Test system: Saccharomyces cerevisiae
Procedure text: protein stability index of tFT-peptide fusion (C-terminal peptide) (PSI (0-1 scale)); higher = more stable (slower turnover)
Cond: genetic background: wild type; temperature: 37 C
Outcome measure: protein stability index

The examples below pair each entry with its known result.
[
  {
    "Sequence text": "VWSSSYVPLGVY",
    "Tgt": "Saccharomyces cerevisiae",
    "protein stability index": 0.384
  },
  {
    "Sequence text": "KLKTSHILIKQT",
    "Tgt": "Saccharomyces cerevisiae",
    "protein stability index": 0.452
  }
]

Lab note: sequence MVVSLVLCFWAS tested on Saccharomyces cerevisiae; recorded protein stability index was 0.414

Measured on Saccharomyces cerevisiae, KRNLLYNIIVWI has a documented protein stability index of 0.288

###

System: Saccharomyces cerevisiae
Procedure text: protein stability index of tFT-peptide fusion in wild type (PSI (0-1 scale)); higher = more stable (slower turnover)
Cond: genetic background: wild type
Outcome measure: protein stability index
Output spec: single numeric token, no unit.

Sample records with protein stability index:
[
  {
    "Sequence text": "NSMRWTFRYWVN",
    "protein stability index": 0.0828
  },
  {
    "Sequence text": "GLYMCSVGCWFC",
    "protein stability index": 0.261
  },
  {
    "Sequence text": "AISLPMCPLLLR",
    "protein stability index": 0.226
  },
  {
    "Sequence text": "CLVSLPIELFFR",
    "protein stability index": 0.596
  },
  {
    "Sequence text": "CTSCGYCFRTNN",
    "protein stability index": 0.261
  },
  {
    "Sequence text": "VLIQPLPVQFLN",
    "protein stability index": 0.0725
  },
  {
    "Sequence text": "CLVSLNILLFFR",
    "protein stability index": 0.17
  },
  {
    "Sequence text": "VRTAVGGWRLVG",
    "protein stability index": 0.137
  },
  {
    "Sequence text": "KKHKKGQKQWIN",
    "protein stability index": 0.553
  },
  {
    "Sequence text": "PSLAASFWRVRG",
    "protein stability index": 0.666
  }
]

protein stability index reported for this sequence RSLRVLLPLYNR : 0.623

Input CGVSLPILLFFR . Output protein stability index: 0.0581

Reported protein stability index ( VRGAEGGWRLVG ) = 0.242

response.value for PSLAASFWRVVGD (field: protein stability index) = 0.689

Record CLVSNPILLFFR , field protein stability index: 0.368

###

Tested on: Saccharomyces cerevisiae
Procedure text: protein stability index of tFT-peptide fusion (C-terminal peptide) (PSI (0-1 scale)); higher = more stable (slower turnover)
Cond: genetic background: wild type; temperature: 30 C
Each entry below carries its recorded protein stability index.
// print number alone

Recorded protein stability index for PPSPASASPDRR on Saccharomyces cerevisiae was 0.695

Form: item KKIKKKRTEPQP ; test system Saccharomyces cerevisiae; protein stability index: 0.694

// assay Saccharomyces cerevisiae, entry AVYSDCARNITW , protein stability index value = 0.714

I looked up SPFLPLHRPRML and its protein stability index for Saccharomyces cerevisiae was 0.653

Record GRTGETGRIGRG ; system Saccharomyces cerevisiae; protein stability index = 0.651

Query PPPISPRPPRRA on Saccharomyces cerevisiae; protein stability index returned: 0.708

Form field, protein stability index with Saccharomyces cerevisiae, item GKLWTIIFPLFF : 0.503

Form field, protein stability index with Saccharomyces cerevisiae, item KKKKKTNKDKGQ : 0.66

Lab entry: Saccharomyces cerevisiae assay, sequence RPSPPALPRFLL , protein stability index = 0.703

The recorded protein stability index with Saccharomyces cerevisiae for GELLLVAGMHWL was 0.681

Reported protein stability index (Saccharomyces cerevisiae) for entry PDYPYQDQLARL is 0.784

Saccharomyces cerevisiae data for SSSTPGRATRVS ; its protein stability index: 0.652

Form field, protein stability index with Saccharomyces cerevisiae, item PSSLPSTPPSPP : 0.745

###

The following sequences are listed with their measured protein stability index values.
Test system: Saccharomyces cerevisiae
Procedure text: protein stability index of tFT-peptide fusion (C-terminal peptide) (PSI (0-1 scale)); higher = more stable (slower turnover)
Cond: genetic background: wild type; temperature: 37 C

[
  {
    "Sequence text": "SPWSIHLILLQV",
    "Tgt": "Saccharomyces cerevisiae",
    "protein stability index": 0.36
  }
]

sequence FLSRLVGFYFVV , protein stability index observed: 0.463

Reported protein stability index for LFSSFFVFRLLV was 0.0847

###

Below: a set of entries, each annotated with reported protein stability index.
System: Saccharomyces cerevisiae
Procedure text: protein stability index of tFT-peptide fusion (C-terminal peptide) (PSI (0-1 scale)); higher = more stable (slower turnover)
Cond: genetic background: wild type; temperature: 30 C
Number only, no unit.

Example cases with answers are listed next.
[
  {
    "Sequence text": "LCPGYVDSRCRG",
    "protein stability index": 0.696
  },
  {
    "Sequence text": "RPASPASSPFFP",
    "protein stability index": 0.705
  },
  {
    "Sequence text": "PPPRPGLPAPVP",
    "protein stability index": 0.683
  },
  {
    "Sequence text": "PRHISIHPNATP",
    "protein stability index": 0.705
  },
  {
    "Sequence text": "FFCDFFYLSSHF",
    "protein stability index": 0.716
  },
  {
    "Sequence text": "PPPPPTPPPARP",
    "protein stability index": 0.695
  },
  {
    "Sequence text": "WDSLGGCRARLS",
    "protein stability index": 0.7
  },
  {
    "Sequence text": "TSGAKKISSGTQ",
    "protein stability index": 0.707
  },
  {
    "Sequence text": "FHDVVSKKHSLK",
    "protein stability index": 0.705
  },
  {
    "Sequence text": "GHSLARHRHRGS",
    "protein stability index": 0.701
  }
]

Query SHVVRHVSTVEK yields protein stability index of 0.7

Reported protein stability index of GERHTGTLRRPD : 0.701

For this sequence ( ALAPLISLSFLS ), measured protein stability index is 0.689

###

Test system: Saccharomyces cerevisiae
Procedure text: protein stability index of tFT-peptide fusion (C-terminal peptide) (PSI (0-1 scale)); higher = more stable (slower turnover)
Cond: genetic background: wild type; temperature: 30 C
Reported values of protein stability index for individual entries
Reply: number alone, nothing else.

[
  {
    "Sequence text": "GGGCARRRGGRV",
    "Tgt": "Saccharomyces cerevisiae",
    "protein stability index": 0.696
  },
  {
    "Sequence text": "WGSISVEGRVAG",
    "Tgt": "Saccharomyces cerevisiae",
    "protein stability index": 0.715
  },
  {
    "Sequence text": "VCAVAQPCRVQL",
    "Tgt": "Saccharomyces cerevisiae",
    "protein stability index": 0.683
  },
  {
    "Sequence text": "FNINRCLEGAHK",
    "Tgt": "Saccharomyces cerevisiae",
    "protein stability index": 0.717
  }
]

Sure, the documented protein stability index for PPHPPYPPQPSL is 0.702

Just so you know, measured protein stability index for TKIKKKTQEGSR came out at 0.698

Measured protein stability index of RSKPIQAIPNPV : 0.69

For reference, reported protein stability index for GWLGGGGVVWWG stands at 0.718

So, QKEGGRENETRT ? Its protein stability index was 0.691

Reported protein stability index of SLLAGSSLPFSP : 0.696

Looking up PPPSVPPSLTPP , I see its protein stability index listed as 0.693

protein stability index recorded for this sequence, ERGKRKASHRRR , is 0.683

Value of measured protein stability index for the entry LSPPPSPLPPLP : 0.679

Value of protein stability index reported for the sequence PPPPPPPFCLAP is 0.718

Short answer for PPLPPPVYHSLP : protein stability index was 0.686

Input PPPPPPPPPLLP . Output protein stability index: 0.703

Noted for HPPAFSAKTFPS : its protein stability index reads 0.683

Query LLWNFNLCHCEE yields protein stability index of 0.701

###

Tested on: Saccharomyces cerevisiae
Procedure text: protein stability index of tFT-peptide fusion (C-terminal peptide) (PSI (0-1 scale)); higher = more stable (slower turnover)
Cond: genetic background: wild type; temperature: 30 C
Outcome measure: protein stability index

Guide cases for protein stability index, answers given:
[
  {
    "Sequence text": "PRPRQPPPPPPP",
    "protein stability index": 0.689
  },
  {
    "Sequence text": "KKKKKINRKKKK",
    "protein stability index": 0.705
  },
  {
    "Sequence text": "LLPSSLPFPPLR",
    "protein stability index": 0.72
  }
]

Summary line: VRWIEYDVKGWA , Saccharomyces cerevisiae, reported protein stability index = 0.71

# value of protein stability index, Saccharomyces cerevisiae, item LPATCFSPPSSS = 0.687

protein stability index on Saccharomyces cerevisiae for YSLTFSIHSSCP is 0.697
